# Test description: qHTS assay to identify small molecule antagonists of the estrogen related receptor (ERR) signaling pathway (AID 1224819; also: nearly all actives have a fitted effect of over 50% in size; also: potency is read from the fitted curve at half-maximal effect)
# Condition info: ERR reporter cell line, luciferase inhibition; series mostly up to 46.1 µM
Records with an inconclusive call do not appear. The source made the active and inactive calls. Calls follow the shape of the dose curve; as a rule, active = well fitted inhibition curve with a large enough effect in the repeat runs; inconclusive = weak or mixed curves; inactive = no such curve, though single readings can be large or run the other way.
Endpoint: Potency

                                   molecule  recorded_result
0        CC1CCN=C(N)S1 (stereo unspecified)         inactive
1                O=c1onc2n1-c1cc(Br)ccc1OC2         inactive
2                    N[C@@H](CS(=O)O)C(=O)O         inactive
3  Nc1ncnc2c1nc(Sc1ccc(Cl)cc1)n2[C@H]1OC2COP(=O)(O)O[C@@H]2C1O (stereo partly specified)         inactive

Request: Indicate the recorded Potency value for this molecule: CO[C@H]1O[C@@H]2O[C@]3(C)CC[C@@H]4[C@@H](C)CC[C@H]([C@H]1C)[C@]24OO3
Result: 531 nM (active)

Request: Indicate the recorded Potency value for this molecule: Cc1cccc(C)c1OCC(N)C(C)C (stereo unspecified)
Result: inactive

Request: Indicate the recorded Potency value for this molecule: CCCCS(=N)(=O)CC[C@H](N)C(=O)O (stereo partly specified)
Result: inactive

Request: Indicate the recorded Potency value for this molecule: c1ccc2nc(C3=NCCN3)ccc2c1
Result: inactive

Request: Indicate the recorded Potency value for this molecule: NC(=O)C(=O)O
Result: inactive

Request: Indicate the recorded Potency value for this molecule: O=C1NCc2c1c1c3ccccc3[nH]c1c1[nH]c3ccccc3c21
Result: 2760 nM (active)

Request: Indicate the recorded Potency value for this molecule: CN(CCCOc1ccc(Cc2ccccc2)cc1)CCC(=O)O
Result: inactive

Recorded values, source PubChem BioAssay (Tox21).
